target: LDHC (Homo sapiens)
Sequence (P07864 whole entry): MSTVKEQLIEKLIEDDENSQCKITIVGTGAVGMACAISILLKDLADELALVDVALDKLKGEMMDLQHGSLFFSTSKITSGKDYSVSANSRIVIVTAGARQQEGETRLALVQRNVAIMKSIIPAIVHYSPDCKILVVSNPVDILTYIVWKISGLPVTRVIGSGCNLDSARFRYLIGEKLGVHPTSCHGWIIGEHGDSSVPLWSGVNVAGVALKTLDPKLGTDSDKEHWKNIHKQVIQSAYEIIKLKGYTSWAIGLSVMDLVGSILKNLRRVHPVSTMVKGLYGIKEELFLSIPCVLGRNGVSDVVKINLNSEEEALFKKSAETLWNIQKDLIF
pIC50: −log10 of the molar value.
recorded-metric: pIC50

O=C1CC(c2ccsc2)(c2cccc(OC3COC3)n2)NC(=O)C1Sc1ccccc1Cl (stereo not shown) [Example 10]: 4.30 to 5.00

q: Name the recorded pIC50 of the item O=C1CC(c2ccc(N3CCOCC3)cc2)(c2ccsc2)NC(=O)C1Sc1cc(Cl)ccc1Cl (single isomer, unassigned) [6 Enantiomer 1] in your answer.
a: 4.30 to 5.00

q: Name the recorded pIC50 of the item O=C1CC(c2ccsc2)(c2cccc(Cc3cccc(F)c3)n2)NC(=O)C1Sc1ccccc1Cl (stereo not shown) [Example 11] in your answer.
a: 5.00 to 6.30

q: Name the recorded pIC50 of the item O=C1CC(c2ccc(N3CCOCC3)cc2)(c2ccsc2)NC(=O)C1Sc1cc(Cl)ccc1Cl (single isomer, unassigned) [6 Enantiomer 2] in your answer.
a: 4.00 to 4.30

q: Name the recorded pIC50 of the item O=C1CC(c2ccc(N3CCOCC3)cc2)(c2ccsc2)NC(=O)C1Sc1ccc(F)cc1Cl (stereo not shown) [Example 5] in your answer.
a: 5.00 to 6.30

q: Name the recorded pIC50 of the item O=C1CC(c2ccc(N3CCOCC3)cc2)(c2ccsc2)NC(=O)C1Sc1ccccc1Cl (single isomer, unassigned) [7 Enantiomer 2] in your answer.
a: 4.30 to 5.00

q: Name the recorded pIC50 of the item O=C1CC(c2ccc(N3CCOCC3)cc2)(c2ccsc2)NC(=O)C1Sc1ccccc1Cl (single isomer, unassigned) [7 Enantiomer 1] in your answer.
a: 5.00 to 6.30
